target: Growth hormone secretagogue receptor type 1 (Homo sapiens, UniProt Q92847); assay: Agonist activity at human GHS-R1a expressed in HEK293T cells after 45 mins by HTRF-based IP3 turnover assay; assay type: functional, cell-based; settings: HEK-293T
Sequence (Q92847 whole entry): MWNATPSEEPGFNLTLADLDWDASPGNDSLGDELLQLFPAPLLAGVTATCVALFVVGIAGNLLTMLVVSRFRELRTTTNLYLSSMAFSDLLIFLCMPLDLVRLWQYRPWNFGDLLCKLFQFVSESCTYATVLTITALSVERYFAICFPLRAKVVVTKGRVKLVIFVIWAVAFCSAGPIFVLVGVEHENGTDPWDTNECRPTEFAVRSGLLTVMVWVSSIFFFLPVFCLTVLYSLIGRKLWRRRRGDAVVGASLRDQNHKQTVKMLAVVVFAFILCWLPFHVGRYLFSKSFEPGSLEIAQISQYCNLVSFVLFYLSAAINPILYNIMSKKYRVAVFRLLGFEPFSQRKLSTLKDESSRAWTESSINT
Test Readout: Emax (%)

// query Dear colleague, I am looking for the recorded Emax of the following compound: COc1ccc(Cn2c([C@@H](Cc3c[nH]c4ccccc34)NC(=O)[C@H](CC(C)C)NC(=O)[C@H](CC(C)C)NC(C)=O)nnc2[C@@H](Cc2c[nH]c3ccccc23)NC(=O)C(C)(C)O)cc1
// result 75

// query Dear colleague, I am looking for the recorded Emax of the following compound: COc1ccc(Cn2c([C@@H](Cc3c[nH]c4ccccc34)NC(=O)[C@H](CC(C)C)NC(=O)[C@H](CC(C)C)NC(C)=O)nnc2[C@@H](Cc2c[nH]c3ccccc23)NC(=O)C(C)(C)N)cc1
// result 80

// query Dear colleague, I am looking for the recorded Emax of the following compound: COc1ccc(Cn2c([C@H](Cc3c[nH]c4ccccc34)NC(=O)[C@H]3CNCCO3)nnc2[C@@H](Cc2c[nH]c3ccccc23)NC(=O)[C@@H](CC(C)C)NC(=O)[C@@H](CC(C)C)NC(C)=O)cc1 (stereo in doubt)
// result 75

// query Dear colleague, I am looking for the recorded Emax of the following compound: COC(=O)C(CC(C)C)C(=O)N[C@H](Cc1c[nH]c2ccccc12)c1nnc([C@@H](Cc2c[nH]c3ccccc23)NC(=O)[C@@H](N)CCCCN)n1Cc1ccc(OC)cc1 (mixture of isomers)
// result 81

// query Dear colleague, I am looking for the recorded Emax of the following compound: COC(=O)[C@H](CC(C)C)NC(=O)C(CC(C)C)C(=O)N[C@H](Cc1c[nH]c2ccccc12)c1nnc([C@@H](Cc2c[nH]c3ccccc23)NC(=O)[C@@H](N)CCCCN)n1Cc1ccc(OC)cc1 (stereo partly specified)
// result 82

// query Dear colleague, I am looking for the recorded Emax of the following compound: COc1ccc(Cn2c([C@@H](Cc3c[nH]c4ccccc34)NC(=O)C(CC(C)C)C(=O)N[C@@H](CC(C)C)C(N)=O)nnc2[C@@H](Cc2c[nH]c3ccccc23)NC(=O)[C@@H](N)CCCCN)cc1 (mixture of isomers)
// result 60

====

target: Growth hormone secretagogue receptor type 1 (Homo sapiens, UniProt Q92847); experiment: Antagonist activity at human GHS-R1a transfected in CHO cells assessed as inhibition of ghrelin-induced intracellular calcium mobilization measured over 60 secs by fluo-4AM dye-based fluorometric method; type: functional, cell-based
Test Readout: IC50 (nM)

Consider the worked cases shown below.
// query Dear colleague, I am looking for the recorded IC50 of the following compound: COc1ccc(Cn2c([C@@H](Cc3ccccc3)NC(C)=O)nnc2[C@@H](Cc2c[nH]c3ccccc23)NC(=O)CO)cc1
// result 2

// query Dear colleague, I am looking for the recorded IC50 of the following compound: COc1ccc(Cn2c([C@@H](Cc3ccccc3)NC(C)=O)nnc2[C@@H](Cc2c[nH]c3ccccc23)NC(=O)c2ncccc2F)cc1
// result 2

[I] COc1ccc(Cn2c([C@H](N)Cc3ccccc3)nnc2[C@@H](Cc2c[nH]c3ccccc23)NC(=O)c2ccccn2)cc1
[II] COc1ccc(Cn2c([C@@H](Cc3ccccc3)NC(C)=O)nnc2[C@@H](Cc2c[nH]c3ccccc23)NC(=O)C(C)(C)N)cc1
[III] COc1ccc(Cn2c([C@H](Cc3c[nH]c4ccccc34)NC=O)nnc2[C@@H](Cc2c[nH]c3ccccc23)NC(=O)c2ccccn2)cc1
[IV] COc1ccc(Cn2c([C@@H](N)Cc3ccccc3)nnc2[C@@H](Cc2c[nH]c3ccccc23)NC(=O)c2ccccn2)cc1
// query Highest IC50 first, then in falling order down to the smallest. Returns: the labels arranged in the requested order.
// result III, IV, II, I
(III: 1200 nM, IV: 150 nM, II: 90 nM, I: 4 nM)

====

molecular target: Growth hormone secretagogue receptor type 1 (Homo sapiens); test: Displacement of [125I]-His9-ghrelin from human GHS-R1a transfected in pig LLC PK-1 cell membranes after 60 mins by gamma counting method
Test Readout: Ki (nM)

// query Dear colleague, I am looking for the recorded Ki of the following compound: COc1ccc(Cn2c([C@@H](Cc3c[nH]c4ccccc34)NC(C)=O)nnc2[C@@H](Cc2c[nH]c3ccccc23)NC(=O)C(C)(C)N)cc1
// result 12

// query Dear colleague, I am looking for the recorded Ki of the following compound: COc1ccc(Cn2c([C@H](N)Cc3c[nH]c4ccccc34)nnc2[C@@H](Cc2c[nH]c3ccccc23)NC(=O)C(C)(C)N)cc1
// result 131

// query Dear colleague, I am looking for the recorded Ki of the following compound: COc1ccc(Cn2c([C@@H](N)Cc3ccccc3)nnc2[C@@H](Cc2c[nH]c3ccccc23)NC(=O)c2ccccn2)cc1
// result 62

// query Dear colleague, I am looking for the recorded Ki of the following compound: COc1ccc(Cn2c([C@@H](Cc3ccccc3)NC(C)=O)nnc2[C@@H](Cc2c[nH]c3ccccc23)NC(=O)[C@@H]2CNCCO2)cc1
// result 2

// query Dear colleague, I am looking for the recorded Ki of the following compound: COc1ccc(Cn2c([C@@H](Cc3ccccc3)NC(C)=O)nnc2[C@@H](Cc2c[nH]c3ccccc23)NC(=O)c2ncccc2F)cc1
// result 4

// query Dear colleague, I am looking for the recorded Ki of the following compound: COc1ccc(Cn2c([C@@H](Cc3ccccc3)NC=O)nnc2[C@@H](Cc2c[nH]c3ccccc23)NC(=O)C(C)(C)N)cc1
// result 59

// query Dear colleague, I am looking for the recorded Ki of the following compound: COc1ccc(Cn2c([C@@H](Cc3ccccc3)NC(C)=O)nnc2[C@@H](Cc2c[nH]c3ccccc23)NC(=O)C2=CCCCO2)cc1
// result 9

// query Dear colleague, I am looking for the recorded Ki of the following compound: COc1ccc(Cn2c([C@H](Cc3c[nH]c4ccccc34)NC(C)=O)nnc2[C@@H](Cc2c[nH]c3ccccc23)NC(=O)c2ccccn2)cc1
// result 62

[A] COc1ccc(Cn2c([C@@H](Cc3ccccc3)NC=O)nnc2[C@@H](Cc2c[nH]c3ccccc23)NC(=O)c2ccccn2)cc1
[B] COc1ccc(Cn2c([C@H](N)Cc3ccccc3)nnc2[C@@H](Cc2c[nH]c3ccccc23)NC(=O)C(C)(C)N)cc1
// query Short answer wanted: higher Ki, A or B ? Record your answer as the label of the chosen record.
// result B
(B: 154 nM, A: 8 nM)

====

molecular target: Growth hormone secretagogue receptor type 1 (Homo sapiens); test: Antagonist activity at human GHS-R1a transfected in mouse LTK cells after 6 hrs by CRE/luciferase reporter gene assay in presence of ghrelin and rolipram; assay type: functional, cell-based
pIC50: −log10 of the molar value.
Test Readout: pIC50

// query Dear colleague, I am looking for the recorded pIC50 of the following compound: COc1ccc(Cn2c([C@@H](Cc3c[nH]c4ccccc34)NC(C)=O)nnc2[C@@H](Cc2c[nH]c3ccccc23)NC(=O)C(C)(C)N)cc1
// result 7.66

// query Dear colleague, I am looking for the recorded pIC50 of the following compound: COc1ccc(Cn2c([C@H](N)Cc3ccccc3)nnc2[C@@H](Cc2c[nH]c3ccccc23)NC(=O)C(C)(C)N)cc1
// result 6.94

[I] COc1ccc(Cn2c([C@H](N)Cc3c[nH]c4ccccc34)nnc2[C@@H](Cc2c[nH]c3ccccc23)NC(=O)C(C)(C)N)cc1
[II] COc1ccc(Cn2c([C@H](Cc3c[nH]c4ccccc34)NC=O)nnc2[C@@H](Cc2c[nH]c3ccccc23)NC(=O)c2ccccn2)cc1
// query Short answer wanted: higher pIC50, I or II ? Record your answer as the label of the chosen record.
// result I
(I: 6.89, II: 6.39)

====

target: Growth hormone secretagogue receptor type 1 (Homo sapiens, UniProt Q92847); assay: Antagonist activity at human GHS-R1a transfected in CHO cells assessed as inhibition of ghrelin-induced intracellular calcium mobilization measured over 60 secs by fluo-4AM dye-based fluorometric method; type: functional, cell-based
pIC50: −log10 of the molar value.
Test Readout: pIC50

// query Dear colleague, I am looking for the recorded pIC50 of the following compound: COc1ccc(Cn2c([C@H](N)Cc3ccccc3)nnc2[C@@H](Cc2c[nH]c3ccccc23)NC(=O)C(C)(C)N)cc1
// result 6.87

// query Dear colleague, I am looking for the recorded pIC50 of the following compound: COc1ccc(Cn2c([C@@H](Cc3ccccc3)NC=O)nnc2[C@@H](Cc2c[nH]c3ccccc23)NC(=O)c2ccccn2)cc1
// result 8.52

// query Dear colleague, I am looking for the recorded pIC50 of the following compound: COc1ccc(Cn2c([C@@H](Cc3ccccc3)NC=O)nnc2[C@@H](Cc2c[nH]c3ccccc23)NC(=O)C(C)(C)N)cc1
// result 7.37

// query Dear colleague, I am looking for the recorded pIC50 of the following compound: COc1ccc(Cn2c([C@@H](Cc3c[nH]c4ccccc34)NC(C)=O)nnc2[C@@H](Cc2c[nH]c3ccccc23)NC(=O)c2ccccn2)cc1
// result 8.52

[a] COc1ccc(Cn2c([C@@H](Cc3ccccc3)NC(C)=O)nnc2[C@@H](Cc2c[nH]c3ccccc23)NC(=O)C2=CCCCO2)cc1
[b] COc1ccc(Cn2c([C@@H](Cc3c[nH]c4ccccc34)NC=O)nnc2[C@@H](Cc2c[nH]c3ccccc23)NC(=O)C(C)(C)N)cc1
[c] COc1ccc(Cn2c([C@H](N)Cc3c[nH]c4ccccc34)nnc2[C@@H](Cc2c[nH]c3ccccc23)NC(=O)C(C)(C)N)cc1
[d] COc1ccc(Cn2c([C@H](Cc3c[nH]c4ccccc34)NC(C)=O)nnc2[C@@H](Cc2c[nH]c3ccccc23)NC(=O)c2ccccn2)cc1
// query Highest pIC50 first, then in falling order down to the smallest. Returns: the labels arranged in the requested order.
// result a, b, c, d
(a: 8.40, b: 7.48, c: 7.05, d: 6.72)
